# ASSAYED_TARGET: E3 ubiquitin-protein ligase XIAP (Homo sapiens, UniProt P98170)
# Sequence (P98170 whole entry, the tested form may be a part): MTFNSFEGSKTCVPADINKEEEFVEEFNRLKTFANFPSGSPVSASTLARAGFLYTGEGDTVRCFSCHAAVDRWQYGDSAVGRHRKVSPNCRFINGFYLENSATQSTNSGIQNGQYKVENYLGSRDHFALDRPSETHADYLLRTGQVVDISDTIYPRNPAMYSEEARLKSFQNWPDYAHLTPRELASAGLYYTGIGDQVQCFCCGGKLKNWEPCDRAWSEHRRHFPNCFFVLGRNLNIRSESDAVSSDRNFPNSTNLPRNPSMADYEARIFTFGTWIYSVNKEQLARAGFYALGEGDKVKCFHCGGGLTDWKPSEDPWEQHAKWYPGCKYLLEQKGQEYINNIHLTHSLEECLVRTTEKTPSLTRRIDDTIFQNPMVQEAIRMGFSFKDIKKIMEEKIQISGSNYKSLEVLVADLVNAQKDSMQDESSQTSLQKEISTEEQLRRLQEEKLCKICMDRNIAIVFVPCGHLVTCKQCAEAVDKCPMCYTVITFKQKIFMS
# ASSAY_INFO: Displacement of fluorescent SM5F peptide from XIAP linker BIR3 domain after 3 hrs by fluorescence polarization assay
Reported values of IC50 for individual entries

{"columns": ["COMPOUND", "VALUE_TYPE", "OBSERVED"],
 "data": [
  ["C[C@@H]1O[C@@H](Oc2c(-c3ccc(O)cc3)oc3cc(O)cc(O)c3c2=O)[C@H](OC(=O)/C=C/c2ccc(O)cc2)[C@H](O)[C@H]1OC(=O)/C=C/c1ccc(O)cc1", "IC50", "> 10.4 µM"]
]}

Returns the measured IC50 for the input compound. Input: O=c1c(O)c(-c2ccc(O)cc2)oc2cc(O)cc(O)c12 [KAEMPFEROL]
> 100 µM
